ASSAYED TARGET: HIV-1 RT-associated RNase H (Human immunodeficiency virus type 1 group M subtype B)
IC50 listing for selected molecules.

# MOLECULE, ASSAYED TARGET, IC50
data = [
    ("O=c1cccccc1O [Tropolone, 2-hydroxy-2,4,6-cycloheptatrien-1-one]", "HIV-1 RT-associated RNase H (Human immunodeficiency virus type 1 group M subtype B)", "> 100 µM"),
    ("CC(C)=CCc1ccc(=O)c(O)cc1C(C)C [Nootkatin]", "HIV-1 RT-associated RNase H (Human immunodeficiency virus type 1 group M subtype B)", "> 100 µM"),
    ("CC(C)c1cccc(=O)c(O)c1 [β-Thujaplicin]", "HIV-1 RT-associated RNase H (Human immunodeficiency virus type 1 group M subtype B)", "> 100 µM"),
    ("CC(C)c1ccccc(=O)c1O [α-Thujaplicin]", "HIV-1 RT-associated RNase H (Human immunodeficiency virus type 1 group M subtype B)", "50 µM"),
    ("CC(C)c1ccc(O)c(=O)cc1 [γ-Thujaplicin]", "HIV-1 RT-associated RNase H (Human immunodeficiency virus type 1 group M subtype B)", "> 100 µM"),
]

----------
ASSAYED TARGET: HIV-1 RT-associated RNase H (Human immunodeficiency virus type 1 group M subtype B, UniProt P04585)
pKi: −log10 of the molar value.
EXPERIMENTAL READOUT: pKi

# MOLECULE, EXPERIMENTAL READOUT, REPORTED
data = [
    ("CC(C)c1ccc(O)c(=O)c(O)c1 [β-Thujaplicinol]", "pKi", 6.70),
]

----------
ASSAYED TARGET: human RNase H (Homo sapiens)
Sequence (O60930 1-286): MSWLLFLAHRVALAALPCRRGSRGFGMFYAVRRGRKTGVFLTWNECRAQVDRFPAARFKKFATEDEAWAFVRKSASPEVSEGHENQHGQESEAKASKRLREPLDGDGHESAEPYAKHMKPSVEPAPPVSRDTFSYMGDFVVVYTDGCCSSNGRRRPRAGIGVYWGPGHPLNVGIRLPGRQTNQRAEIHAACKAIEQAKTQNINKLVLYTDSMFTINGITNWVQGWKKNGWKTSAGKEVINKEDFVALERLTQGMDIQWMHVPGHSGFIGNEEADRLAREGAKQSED
pIC50: −log10 of the molar value.
EXPERIMENTAL READOUT: pIC50

# COMPOUND, EXPERIMENTAL READOUT, VALUE COMPARATOR, REPORTED
rows = [
    ("CC(C)c1ccc(O)c(=O)cc1", "pIC50", "=", 5.70),
    ("CC(C)=CCc1ccc(=O)c(O)cc1C(C)C", "pIC50", "=", 4.60),
    ("CC(C)c1cccc(=O)c(O)c1", "pIC50", "<", 4.00),
    ("O=c1cccccc1O [Tropolone, 2-hydroxy-2,4,6-cycloheptatrien-1-one]", "pIC50", "=", 5.52),
    ("CC(C)c1ccccc(=O)c1O", "pIC50", "=", 4.92),
]

----------
ASSAYED TARGET: HIV-2 RT-associated RNase H (Human immunodeficiency virus type 2 subtype A)
Sequence (P04584 613-1171 limits assumed): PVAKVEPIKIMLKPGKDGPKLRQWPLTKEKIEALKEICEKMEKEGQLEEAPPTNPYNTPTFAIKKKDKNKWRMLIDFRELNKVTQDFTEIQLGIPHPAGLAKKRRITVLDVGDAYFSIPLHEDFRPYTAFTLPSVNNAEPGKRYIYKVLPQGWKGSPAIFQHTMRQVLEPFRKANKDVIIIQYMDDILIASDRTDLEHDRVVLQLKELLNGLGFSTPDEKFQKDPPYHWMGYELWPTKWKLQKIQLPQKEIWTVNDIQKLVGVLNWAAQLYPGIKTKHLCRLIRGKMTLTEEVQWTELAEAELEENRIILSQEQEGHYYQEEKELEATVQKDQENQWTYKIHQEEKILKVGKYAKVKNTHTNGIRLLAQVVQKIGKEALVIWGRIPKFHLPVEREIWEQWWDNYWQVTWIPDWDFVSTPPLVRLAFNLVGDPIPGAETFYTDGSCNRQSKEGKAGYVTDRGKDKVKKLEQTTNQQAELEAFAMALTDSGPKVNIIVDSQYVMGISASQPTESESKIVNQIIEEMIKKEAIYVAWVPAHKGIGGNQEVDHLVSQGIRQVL
Sequence (P04584 613-1051 partner limits assumed): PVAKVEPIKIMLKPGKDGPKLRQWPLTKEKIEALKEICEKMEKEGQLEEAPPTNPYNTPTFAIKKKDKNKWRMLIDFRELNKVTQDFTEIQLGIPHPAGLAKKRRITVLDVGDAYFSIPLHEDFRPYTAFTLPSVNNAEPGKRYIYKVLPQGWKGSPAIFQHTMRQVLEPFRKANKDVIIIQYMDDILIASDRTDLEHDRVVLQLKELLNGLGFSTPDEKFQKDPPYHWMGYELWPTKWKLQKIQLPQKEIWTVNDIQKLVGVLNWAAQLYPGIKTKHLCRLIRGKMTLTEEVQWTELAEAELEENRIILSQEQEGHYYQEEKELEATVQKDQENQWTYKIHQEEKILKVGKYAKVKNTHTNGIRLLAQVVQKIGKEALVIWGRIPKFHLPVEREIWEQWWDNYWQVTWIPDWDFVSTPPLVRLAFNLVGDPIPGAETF
EXPERIMENTAL READOUT: IC50

# MOLECULE, ASSAYED TARGET, REPORTED
records = [
    ("CC(C)c1ccc(O)c(=O)c(O)c1", "HIV-2 RT-associated RNase H (Human immunodeficiency virus type 2 subtype A)", "0.77 µM"),
    ("CC(C)c1ccc(O)c(=O)cc1", "HIV-2 RT-associated RNase H (Human immunodeficiency virus type 2 subtype A)", "> 100 µM"),
    ("O=c1cccccc1O [Tropolone, 2-hydroxy-2,4,6-cycloheptatrien-1-one]", "HIV-2 RT-associated RNase H (Human immunodeficiency virus type 2 subtype A)", "> 100 µM"),
    ("CC(C)c1ccccc(=O)c1O", "HIV-2 RT-associated RNase H (Human immunodeficiency virus type 2 subtype A)", "33 µM"),
    ("CC(C)=CCc1ccc(=O)c(O)cc1C(C)C", "HIV-2 RT-associated RNase H (Human immunodeficiency virus type 2 subtype A)", "> 100 µM"),
    ("CC(C)c1cccc(=O)c(O)c1", "HIV-2 RT-associated RNase H (Human immunodeficiency virus type 2 subtype A)", "> 100 µM"),
]
